The origin of these recorded values is patent US20230235058A1.

Target Or Test System: chimeric BTLA of humanised-BTLA mice (human extracellular region, murine transmembrane and signaling … (human; mouse, UniProt Q7TSA3 184-306, limits assumed)
Sequence (Q7TSA3 other isoform, or with tags, fused parts or gaps mutant limits assumed): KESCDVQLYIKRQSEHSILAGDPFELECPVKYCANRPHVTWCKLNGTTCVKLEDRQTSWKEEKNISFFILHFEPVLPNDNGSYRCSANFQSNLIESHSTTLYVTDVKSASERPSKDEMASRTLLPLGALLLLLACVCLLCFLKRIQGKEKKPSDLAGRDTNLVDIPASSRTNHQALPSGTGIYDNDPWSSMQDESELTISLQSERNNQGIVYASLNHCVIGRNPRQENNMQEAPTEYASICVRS
Test Description: cell-based or functional assay
AntiCD3/CD28 (CD4 T cell proliferation) repeat 1 vs 20 % inhibition: at or above is label 1, below is label 0.

Reference set, count: 4
>  <Binder>
2.8.6 (antibody, V domains shown, mouse IgG1k hybridoma antibody; also called clone 2.8.6) VH: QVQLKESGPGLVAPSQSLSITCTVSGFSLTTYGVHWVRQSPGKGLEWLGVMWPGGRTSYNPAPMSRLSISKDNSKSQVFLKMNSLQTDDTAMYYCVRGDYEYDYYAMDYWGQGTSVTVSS VL: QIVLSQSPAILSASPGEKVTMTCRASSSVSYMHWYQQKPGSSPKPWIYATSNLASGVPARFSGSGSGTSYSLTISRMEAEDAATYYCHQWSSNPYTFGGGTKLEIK

>  <Assigned Label>
label 1

$$$$
>  <Binder>
6.2 (antibody, IgG1, V domains shown, mIgG1; also called clone 6.2; parent clone 6.2) VH: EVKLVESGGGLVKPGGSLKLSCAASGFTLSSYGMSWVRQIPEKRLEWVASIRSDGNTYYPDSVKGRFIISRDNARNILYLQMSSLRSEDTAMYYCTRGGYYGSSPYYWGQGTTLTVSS VL: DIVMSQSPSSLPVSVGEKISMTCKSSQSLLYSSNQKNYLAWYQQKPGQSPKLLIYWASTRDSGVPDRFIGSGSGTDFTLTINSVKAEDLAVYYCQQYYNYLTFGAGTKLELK

>  <Assigned Label>
label 0

$$$$
>  <Binder>
24H7 (antibody, IgG1, V domains shown, mIgG1) VH: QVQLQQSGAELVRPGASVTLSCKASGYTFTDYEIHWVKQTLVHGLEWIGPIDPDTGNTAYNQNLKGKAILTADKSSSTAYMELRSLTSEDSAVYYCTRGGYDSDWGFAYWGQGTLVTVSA VL: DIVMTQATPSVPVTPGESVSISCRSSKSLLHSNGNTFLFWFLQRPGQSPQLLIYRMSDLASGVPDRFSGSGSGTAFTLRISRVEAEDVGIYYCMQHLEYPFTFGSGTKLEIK

>  <Assigned Label>
label 0

$$$$
>  <Binder>
15B6 (antibody, IgG1, V domains shown) VH: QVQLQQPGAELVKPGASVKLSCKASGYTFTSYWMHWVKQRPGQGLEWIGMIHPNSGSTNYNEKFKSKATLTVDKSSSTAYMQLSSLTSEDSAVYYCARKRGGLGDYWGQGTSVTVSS VL: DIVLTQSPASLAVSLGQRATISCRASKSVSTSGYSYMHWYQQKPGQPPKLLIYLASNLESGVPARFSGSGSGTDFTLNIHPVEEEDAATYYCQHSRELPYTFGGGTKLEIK

>  <Assigned Label>
label 0

$$$$

Next item in the queue.
query: Does 14D4 (antibody, IgG1, V domains shown, mIgG1) VH: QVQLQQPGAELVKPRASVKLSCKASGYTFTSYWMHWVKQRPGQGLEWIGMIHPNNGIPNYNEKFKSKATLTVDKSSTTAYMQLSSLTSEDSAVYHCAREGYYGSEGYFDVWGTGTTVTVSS VL: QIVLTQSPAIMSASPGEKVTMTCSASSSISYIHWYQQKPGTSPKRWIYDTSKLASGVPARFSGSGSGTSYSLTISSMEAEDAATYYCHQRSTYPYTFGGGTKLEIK have a reported AntiCD3/CD28 (CD4 T cell proliferation) repeat 1 of at least 20 % inhibition?
result: label 1
